EXPERIMENT_SUMMARY: probe aEGFR binding to arrayed compounds – biochemical, biotinylated probe, 635/667 nm fluorescence, primary screen (AID 1097);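 also: probe is a biotinylated anti-EGFR antibody binding compounds printed on slides; score combines fluorescence near 667 nm and signal to noise of each spot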
CONDITION: small-molecule microarray, higher = more signal
Record form. Attribute: composite z-score. Fill in for each entry.

Sample records with composite z-score:
COC(=O)[C@H](Cc1ccccc1)N1CC2=CCCC=C[C@@H]2[C@H]1[C@H](O)Cc1ccccc1	-0.111
COC(=O)C1(Cc2ccccc2)C=C2C(=C(C)C(=O)C2C)CN1 (centres undefined)	-0.0146
C=CCC(OC(C)=O)[C@@H]1[C@@H](N(Cc2cc3ccccc3o2)C(=O)Cc2ccc(OC)cc2)c2cc(OCCCO)ccc2N1C(=O)c1ccc2ccccc2n1 (some centres undefined)	0.0453

IN: I would be grateful if you could share the reported composite z-score for CO[C@H]1O[C@H](CO)[C@@H](OC(=O)Nc2ccccc2-c2ccccc2)[C@H](OC(=O)Nc2ccccc2)[C@H]1OC(=O)Nc1ccccc1 .
OUT: 0.0903
